Values were extracted from the supplement of paper PMC10567573.

B1: ETS1 (parent)
chain: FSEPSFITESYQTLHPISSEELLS

Variants of: B1
measurement-notes: protein stability index of a GFP-peptide fusion (GPS, HEK-293T) (PSI 1-6); higher = more stable;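 also: lentivirally expressed fusions sorted by FACS into six bins by GFP to DsRed ratio, PSI derived from sequencing read proportions per bin multiplied by bin number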
recorded-conditions: c terminus: a fixed tail appended
Rule: protein stability index under 2 gives FALSE, otherwise TRUE.

Given the entry "E20F" , answer whether its protein stability index meets or surpasses 2.
FALSE

How about "S18I" ?
FALSE

Now consider "E21I" .
FALSE

Also "T13H" , if possible.
FALSE

Now the variant "S18F"
FALSE

Another variant to look at: "F1C"
TRUE

Proceed to "F1P"
TRUE

// repeat for "T13G" and report
FALSE
